Test: gradient 5% acetonitrile 3 min, to 50% in 2 min, to 85% in 15 min, held 3 min, 100 µL/min
Details: column: Zorbax Extend-C18 2.1 x 50 mm; eluents: water / acetonitrile, 0.1% formic acid
assay_endpoint: RP-LC retention time (s)
Field format: number, assumed s, no unit text.

[
  {
    "compound": "O=S(=O)(c1cccc(F)c1)N1CCC(n2c(-c3ccoc3)nc3cccnc32)C1 (stereo unspecified)",
    "RP-LC retention time, s": 872
  },
  {
    "compound": "O=C1C[C@@H](c2ccc(O)c(O)c2)Oc2cc(O[C@H]3O[C@@H](CO)[C@H](O)[C@@H](O)[C@@H]3O)cc(O)c21",
    "RP-LC retention time, s": 723
  },
  {
    "compound": "CNC(=O)C1CCN(C(=O)Nc2ccc(NC(=O)Nc3ccc(OC)cc3)cc2)CC1",
    "RP-LC retention time, s": 638
  }
]

Lookup result for Cc1ccn2cc(-c3ccc(C)c(NS(=O)(=O)c4ccccc4)c3)nc2c1 ; measured RP-LC retention time: 655

The recorded RP-LC retention time for CN1CCC(C2CCN(S(=O)(=O)c3ccccc3Cl)C2)CC1 (stereo unspecified) is 710

According to the records, this compound Cc1sc(-c2cc(C(F)(F)F)on2)cc1S(=O)(=O)N1CCN(C2CCCCC2)CC1 displays RP-LC retention time of 857
